target: Deoxyuridine 5'-triphosphate nucleotidohydrolase, mitochondrial (Homo sapiens); test: Inhibition Assay: The inhibitory activity of the compound against human dUTPase was determined by measuring the production of [5-3H]deoxyuridine monophosphate from [5-3H]deoxyuridine triphosphate.
Sequence (P33316 whole entry): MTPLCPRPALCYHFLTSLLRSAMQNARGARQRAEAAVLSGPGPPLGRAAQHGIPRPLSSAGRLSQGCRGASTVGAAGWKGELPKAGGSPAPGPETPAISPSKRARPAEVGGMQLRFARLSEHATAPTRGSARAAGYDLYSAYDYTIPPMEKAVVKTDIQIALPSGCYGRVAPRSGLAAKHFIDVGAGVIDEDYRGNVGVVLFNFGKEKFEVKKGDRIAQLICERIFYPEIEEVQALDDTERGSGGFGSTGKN
measurement-name: IC50

## Task Any idea what its IC50 is? The molecule is C[C@@H](NS(=O)(=O)CCCOCn1ccc(=O)[nH]c1=O)c1cccc(OCCF)c1
## Result 410 nM
